assay: Cytotoxicity assay (resazurin); format: cell-based; conditions: mouse, murine peritoneal macrophages, 0–200 µM tested, mean ± SD from three independent experiments
Measurement type: CC50 at 72 h

In [3]: df
Out[3]:
                                   molecule  measurement_type  recorded_value
0  CC1(Cc2ccccc2)CC(C(=O)Nc2ccc(Cl)cn2)=C(c2ccc(C(N)=NO)cc2)O1 (stereo not drawn)      CC50 at 72 h        > 200 µM
1  CC1(Cc2ccccc2)CC(C(=O)Nc2ccc(Br)cn2)=C(c2ccc(C(N)=NO)cc2)O1 (stereo not drawn)      CC50 at 72 h          172 µM
2  Cc1ccc(NC(=O)C2=C(c3ccc(C(N)=NO)cc3)OC(C)(Cc3ccccc3)C2)nc1 (stereo not drawn)      CC50 at 72 h        > 200 µM
